Target: T1, recombinant Cad-11 EC1 human IgG1 fusion protein (R&D Systems Cat. No. 1790-CA-050) (human, UniProt P55287 54-617, limits assumed)
T1 construct: bought; also called recombinant human Cad-11 EC1; recombinant human Cad-11 fusion protein; not shown: human IgG1 part
T1 sequence: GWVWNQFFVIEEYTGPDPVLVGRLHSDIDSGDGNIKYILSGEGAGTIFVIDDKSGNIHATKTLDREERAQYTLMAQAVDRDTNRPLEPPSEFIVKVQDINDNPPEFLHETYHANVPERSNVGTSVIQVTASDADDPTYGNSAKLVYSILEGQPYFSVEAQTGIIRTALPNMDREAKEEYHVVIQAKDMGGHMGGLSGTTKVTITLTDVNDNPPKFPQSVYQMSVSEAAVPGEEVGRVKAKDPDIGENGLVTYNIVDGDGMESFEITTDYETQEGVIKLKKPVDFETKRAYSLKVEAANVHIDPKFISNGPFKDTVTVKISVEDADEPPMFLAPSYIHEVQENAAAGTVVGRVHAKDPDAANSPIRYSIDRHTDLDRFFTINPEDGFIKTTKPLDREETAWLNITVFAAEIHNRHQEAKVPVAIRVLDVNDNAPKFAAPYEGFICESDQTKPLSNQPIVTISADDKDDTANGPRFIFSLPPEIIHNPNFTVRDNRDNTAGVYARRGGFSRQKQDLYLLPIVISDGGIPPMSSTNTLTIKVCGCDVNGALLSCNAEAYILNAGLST
Assay: competition ELISA on coated recombinant human Cad-11 EC1 fusion protein against biotinylated SYN0012 (0.1 µg/ml)
Observed Property: IC50 (read off the curve)

Solved entries (count: 3):
Binder: SDP051 humanized anti-Cad-11 EC1 antibody (Vκ1/VH5) (antibody, IgG4, V domains shown, humanized IgG4 (S241P), kappa) VH: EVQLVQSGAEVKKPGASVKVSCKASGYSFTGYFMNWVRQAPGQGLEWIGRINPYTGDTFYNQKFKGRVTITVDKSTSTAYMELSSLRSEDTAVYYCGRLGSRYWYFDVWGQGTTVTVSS VL: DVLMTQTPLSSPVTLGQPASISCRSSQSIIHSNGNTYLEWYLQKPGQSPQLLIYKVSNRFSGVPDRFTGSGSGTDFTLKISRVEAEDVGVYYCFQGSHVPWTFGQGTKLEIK
IC50 (read off the curve): ~0.2 µg/mL
//
Binder: SDP021 humanized anti-Cad-11 EC1 antibody (Vκ1/VH2) (antibody, IgG4, V domains shown, humanized IgG4 (S241P), kappa) VH: EVQLVQSGAEVKKPGASVKISCKASGYSFTGYFMNWVKQAPGQGLEWIGRINPYTGDTFYNQKFKGRATLTVDKSTSTAYMELSSLRSEDTAVYYCGRLGSRYWYFDVWGQGTTVTVSS VL: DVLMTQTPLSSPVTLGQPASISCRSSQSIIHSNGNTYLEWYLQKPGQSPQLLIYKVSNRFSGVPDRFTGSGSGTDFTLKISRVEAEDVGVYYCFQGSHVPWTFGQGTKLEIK
IC50 (read off the curve): ~0.1 µg/mL
//
Binder: SDP041 humanized anti-Cad-11 EC1 antibody (Vκ1/VH4) (antibody, IgG4, V domains shown, humanized IgG4 (S241P), kappa) VH: EVQLVQSGAEVKKPGASVKVSCKASGYSFTGYFMNWVRQAPGQGLEWIGRINPYTGDTFYNQKFKGRATITVDKSTSTAYMELSSLRSEDTAVYYCGRLGSRYWYFDVWGQGTTVTVSS VL: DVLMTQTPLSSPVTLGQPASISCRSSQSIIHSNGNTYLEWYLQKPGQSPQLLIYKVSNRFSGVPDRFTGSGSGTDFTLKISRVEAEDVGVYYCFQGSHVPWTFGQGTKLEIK
IC50 (read off the curve): ~0.1 µg/mL

For the next question, use this binder.
Exam item: # input binder: SDP011 humanized anti-Cad-11 EC1 antibody (Vκ1/VH1) (antibody, IgG4, V domains shown, humanized IgG4 (S241P), kappa) VH: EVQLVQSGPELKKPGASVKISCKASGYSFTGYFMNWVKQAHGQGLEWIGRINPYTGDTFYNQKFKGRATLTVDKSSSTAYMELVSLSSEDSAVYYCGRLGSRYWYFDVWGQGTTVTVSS VL: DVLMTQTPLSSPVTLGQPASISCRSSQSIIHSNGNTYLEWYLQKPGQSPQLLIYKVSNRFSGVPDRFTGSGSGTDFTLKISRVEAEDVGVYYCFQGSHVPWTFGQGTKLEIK ; wanted: its IC50 (read off the curve)
Marked response: ~0.2 µg/mL
